A collection of compounds and their measured Eff. %
# System: Uromyces appendiculatus
# Test summary: In vivo preventive test on Uromyces appendiculatus (bean rust)
# Experimental setup: 500 ppm, preventive spray, bean plants, grading 11 days after contamination
Observed property: Eff. %

compound="Cc1nn(C)c(F)c1C(=O)Nc1cccc2c1C(C)CC2CC(C)C (centres unmarked) [Example 20]" observed_value=100%
compound="CC1CC2(CC2)c2cccc(NC(=O)c3cn(C)nc3C(F)F)c21 (centres unmarked) [Example 25]" observed_value=99%
compound="CCC1(C)CCc2c(NC(=O)c3cn(C)nc3C(F)F)cccc21 (centres unmarked) [Example 24]" observed_value=97%
compound="Cc1nn(C)c(F)c1C(=O)Nc1cccc2c1C(C)CC2CC(C)(C)C (centres unmarked) [Example 35]" observed_value=100%
compound="CC1CC(C)c2c(NC(=O)c3cn(C)nc3C(F)F)cccc21 (centres unmarked) [Example 8]" observed_value=100%
compound="CCCON=C1CC(C)c2c(NC(=O)c3c(C)nn(C)c3F)cccc21 (centres unmarked) [Example 19]" observed_value=93%
compound="CCCON=C1CCc2c(NC(=O)c3cn(C)nc3C(F)F)cccc21 [Example 30]" observed_value=95%
compound="Cc1nn(C)c(C)c1C(=O)Nc1cccc2c1C(C)CC2CC(C)C (centres unmarked) [Example 14]" observed_value=99%
compound="CC(C)CC1CC(C)c2c(NC(=O)c3cn(C)nc3C(F)F)cccc21 (centres unmarked) [Example 33]" observed_value=100%
compound="CC1CC(CC(C)(C)C)c2cccc(NC(=O)c3cn(C)nc3C(F)F)c21 (centres unmarked) [Example 18]" observed_value=100%
compound="CC(C)CC1CC(C)c2c(NC(=S)c3cn(C)nc3C(F)F)cccc21 (centres unmarked) [Example 44]" observed_value=100%
compound="CC1CC2(CC2)c2cccc(NC(=O)c3cn(C)nc3C(F)(F)F)c21 (centres unmarked) [Example 10]" observed_value=99%
compound="CC1CC(C(C)C)c2cccc(NC(=O)c3cn(C)nc3C(F)F)c21 (centres unmarked) [Example 1]" observed_value=100%
compound="Cc1nn(C)c(F)c1C(=S)Nc1cccc2c1C(C)CC2CC(C)(C)C (centres unmarked) [Example 43]" observed_value=100%
compound="CC1CC2(CC2(Cl)Cl)c2cccc(NC(=O)c3cn(C)nc3C(F)F)c21 (centres unmarked) [Example 4]" observed_value=100%
compound="Cc1nn(C)c(C)c1C(=O)Nc1cccc2c1CCC21CC1 [Example 13]" observed_value=100%
compound="Cc1nn(C)c(C)c1C(=O)Nc1cccc2c1C(C)CC2C(C)(C)C (centres unmarked) [Example 16]" observed_value=100%
